// reported inhibition for each item listed
# ASSAY NOTES: blockers of RIG-like receptor reporter activation – cell-based, Sendai virus stimulus, luciferase, 10K MLSCN set, TLR/RLR signaling modifier project, primary screen (AID 602276);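 note: firefly luciferase from ISG56 promoter only with Renilla not read in this screen; 0% = Sendai virus plus DMSO and 100% = medium plus DMSO without virus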
# CONDITION DETAILS: HEK293 RL24 IRF3 luciferase reporter, at 10 µM, stronger effect = higher value
Your answer is read as %, so omit the unit and give the number.

The cases that follow already have their inhibition on record.
COc1ccc(-c2nc3c(c(SCC(=O)N4CCOCC4)n2)COC(C)(C)C3)cc1 ... 12.6
CC1CC(=O)c2cnc(NCC3CCCO3)nc2C1 (configuration not stated) ... 6.29
CCOC(=O)/C=C1\SCC(=O)N1Cc1ccc(Br)cc1 ... 10.8

(Q) Return the recorded inhibition value; entry: Nc1nnn(Cc2ccccc2)n1
(A) 0.136

(Q) Return inhibition (reported value) for this compound: O=C1c2ccccc2CN1CCNS(=O)(=O)c1ccc(Cl)cc1
(A) 14.1

(Q) Assign inhibition to the following record: CCOc1ccccc1N(C(=O)Cn1nnnc1-c1ccc(C)o1)C(CC)C(=O)NC(C)(C)C (configuration not stated)
(A) -5.79

(Q) In one line, give reported inhibition of the entry CC(C)(C)SCCNC(=O)CSc1ccccc1 .
(A) -20.5

----------
A collection of molecules and their measured NADPH fluorescence slope
# TARGET OR SYSTEM: Voltage-gated potassium channel subunit beta-2 (Rattus norvegicus) (UniProt P62483)
# Sequence (P62483 whole entry, looked up): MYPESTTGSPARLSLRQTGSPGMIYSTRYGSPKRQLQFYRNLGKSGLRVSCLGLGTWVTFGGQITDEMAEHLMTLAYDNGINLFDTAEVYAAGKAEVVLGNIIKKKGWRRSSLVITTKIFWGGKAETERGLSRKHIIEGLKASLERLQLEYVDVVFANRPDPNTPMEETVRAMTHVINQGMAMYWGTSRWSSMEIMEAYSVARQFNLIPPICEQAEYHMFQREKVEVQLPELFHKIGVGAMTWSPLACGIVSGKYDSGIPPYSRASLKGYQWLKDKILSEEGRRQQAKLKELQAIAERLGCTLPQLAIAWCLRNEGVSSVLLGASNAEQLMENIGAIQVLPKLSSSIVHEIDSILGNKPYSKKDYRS
# ASSAY NOTES: enhancers of rat Kvbeta2 NADPH turnover – biochemical, NADPH fluorescence, primary screen (AID 623);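 note: fluorescence intensity change per second fitted from 20 to 320 s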
# CONDITION DETAILS: Recombinant KvBeta, NADPH fluorescence decrease slope, 10 min; at 10 µM; stronger effect = lower value
Write the number on its own, no unit after it.

Recorded NADPH fluorescence slope, per entry:
C=CCSc1n[nH]c(-c2ccc(OC)cc2)n1 ... -9.3e-05
COC(=O)c1[nH]c2c(c1C)C(=O)CC(c1cc(OC)ccc1OC)C2 (stereo unspecified) ... -1.2e-05
CCOC(=O)c1ccc2nc(C)c3c(c2c1)OC(C)C3 (stereo unspecified) ... 1.7e-05
COC(=O)CS(=O)(=O)c1nnc([C@H](Cc2ccccc2)NC(=O)OC(C)(C)C)o1 ... -5.6e-05
Cc1ccc(-c2cc(C(F)(F)F)n3nc(C(=O)N4CCCC4)cc3n2)cc1 ... -1.4e-05
Cc1cc(C)cc(NC(=O)C2CCCN(c3nccc(C)n3)C2)c1 (stereo unspecified) ... -8.4e-05

(Q) Provide only the value of recorded NADPH fluorescence slope for CCOC(=O)c1ccc(N=c2sc(C(=O)OC)cc(=O)n2Cc2ccco2)cc1
(A) -4.8e-05

(Q) Return NADPH fluorescence slope for the following molecule: O=C1C2CC=C(Cl)CC2C(=O)N1c1ncn[nH]1 (stereo unspecified)
(A) -5.8e-05

(Q) Give the measured NADPH fluorescence slope for Cc1nc2ccc(S(=O)(=O)NC(C(=O)N3CCCC3)C(C)C)cc2s1 (stereo unspecified)
(A) 1.2e-05

(Q) Hello, please tell me recorded NADPH fluorescence slope for this one: Fc1ccc(C(c2nnnn2Cc2ccco2)N2CCN(C3CCCCC3)CC2)cc1 (stereo unspecified)
(A) 3.4e-05

(Q) Given CCOc1ccc(Cc2nn[nH]n2)cc1 , respond with its NADPH fluorescence slope.
(A) -0.000245

----------
# TARGET OR SYSTEM: Voltage-gated potassium channel subunit beta-2 (Rattus norvegicus)
# ASSAY NOTES: inhibitors of rat Kvbeta2 reductase activity – biochemical, NADPH fluorescence, primary screen (AID 622);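 note: slope of raw intensity against log time taken from 70 to 1610 s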
# CONDITION DETAILS: recombinant KvBeta, 4-cyanobenzaldehyde reduction, at 10 µM, stronger effect = higher value
Reported fluorescence slope values for a set of compounds
Respond with the number and no other words.

As a guide, the following entries are already answered.
Cc1ccc(N(C(C)C(=O)Nc2ccc(S(=O)(=O)N3CCOCC3)cc2)S(C)(=O)=O)cc1 (stereo not given) ... -0.518
COc1ccc(-c2nc(C(N)=O)c3[nH]c(=O)n(-c4cccc(Cl)c4)c3n2)cc1OC ... -0.521
CCn1c(=O)c2cc(S(=O)(=O)NCc3ccccc3)ccc2n(CC)c1=O ... -0.573
CCCc1nnc(SCC(=O)N2CCOCC2)n1Cc1ccco1 ... -0.617

(Q) State fluorescence slope (Voltage-gated potassium channel subunit beta-2 (Rattus norvegicus)) of CCCC(=O)N1CC(=O)Nc2ccc(C)cc2C1c1ccc(F)cc1 (stereo not given) .
(A) -0.513

(Q) Return reported fluorescence slope for target or system Voltage-gated potassium channel subunit beta-2 (Rattus norvegicus), item COCCCN(C)C1CCN(C(=O)Nc2ccc(F)cc2)CC1 .
(A) -0.582

(Q) Name the recorded fluorescence slope of Cc1cnc(SCCc2ccncc2)nc1C , assay system Voltage-gated potassium channel subunit beta-2 (Rattus norvegicus).
(A) -0.278

----------
# ASSAY NOTES: blockers of RIG-like receptor reporter activation – cell-based, Sendai virus stimulus, luciferase, 10K MLSCN set, TLR/RLR signaling modifier project, primary screen (AID 602276);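 note: firefly luciferase from ISG56 promoter only with Renilla not read in this screen; 0% = Sendai virus plus DMSO and 100% = medium plus DMSO without virus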
# CONDITION DETAILS: HEK293 RL24 IRF3 luciferase reporter, at 10 µM, stronger effect = higher value
# maps each entry to its inhibition
Reply with just the number (in %).

Cc1cccc(Nc2nc3c(c(=O)n(C)c(=O)n3C)n2Cc2ccccc2)c1 ... 3.57
CCCCn1c(NCc2ccccc2O)nc2ccccc21 ... 0.354
Cc1cc2nc(-c3ccco3)cc(C(F)(F)F)n2n1 ... 10.1

Next molecule, please.
(Q) State, in one line, measured inhibition of CCCCCn1c(CN2CCN(c3cccc(Cl)c3)CC2)nc2c1c(=O)n(C)c(=O)n2C
(A) -3

----------
# ASSAY NOTES: inhibitors of TNFa-induced NFkB p65 translocation, primary screen, imaging, HUVEC, MLSMR starter and 10KST1 sets (AID 438);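 note: compound added about 3h40 before a 20 min TNFalpha stimulation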
# CONDITION DETAILS: HUVEC TNFa-induced p65 nuclear translocation; measured here: nuclei count (cytotoxicity indicator), at 2.08 µM
PARAMETER MEASURED: cell count

Example cases with answers are listed next.
COc1ccc(CCNC(=O)c2cc3sc(Cl)cc3n2C)cc1OC ... 611
Cc1cc(C)c(C#N)c(SCc2ccc(C#N)cc2)n1 ... 609
Cc1ccc(N=C2NC(=O)CS2)c(C)c1 ... 607
CC(C)NC(=O)CSc1nc2ccccc2n1-c1ccccc1 ... 379
c1ccc(-c2nnc(CSc3nncs3)o2)cc1 ... 322
c1cn2cc(CSC3CCCCC3)nc2s1 ... 641
COCCn1c(SCC(=O)Nc2ccc3c(c2)OCCO3)nc2c(c1=O)SC(C)C2 (configuration not stated) ... 715
CCOC(=O)c1sc2nc(NC(=O)C(C)(C)C)sc2c1C ... 600
CC(C)n1c(CN2CCN(C)CC2)nc2c1c(=O)n(C)c(=O)n2C ... 600
CC(=O)Nc1ccc(OC(=O)c2cccs2)cc1 ... 716

(Q) Check the records and state cell count for CCOP(=O)(c1ccc(N(C)C)cc1)C(O)c1ccccc1OC (configuration not stated)
(A) 728

(Q) Please supply the value of reported cell count for the item Clc1ccc2nc(N3CCCCC3)[nH]c2c1
(A) 706

----------
# TARGET OR SYSTEM: Alpha-2C adrenergic receptor (Homo sapiens) (UniProt P18825)
# Sequence (P18825 whole entry, looked up): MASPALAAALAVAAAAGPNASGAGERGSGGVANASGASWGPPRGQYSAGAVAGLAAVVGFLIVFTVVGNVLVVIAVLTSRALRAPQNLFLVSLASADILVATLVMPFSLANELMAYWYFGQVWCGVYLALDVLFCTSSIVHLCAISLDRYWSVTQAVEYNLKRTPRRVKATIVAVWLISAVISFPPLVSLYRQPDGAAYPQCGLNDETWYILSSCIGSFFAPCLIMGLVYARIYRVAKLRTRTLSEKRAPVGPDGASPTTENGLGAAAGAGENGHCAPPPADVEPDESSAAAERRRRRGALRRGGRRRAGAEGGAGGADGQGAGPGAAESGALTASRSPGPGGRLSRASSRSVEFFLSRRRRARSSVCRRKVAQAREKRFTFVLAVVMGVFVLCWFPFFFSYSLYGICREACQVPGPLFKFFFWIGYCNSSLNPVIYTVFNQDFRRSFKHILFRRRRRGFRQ
# ASSAY NOTES: compounds altering alpha2C-coupled GIRK flux – cell-based, HEK293 alpha2C/GIRK1/2, thallium flux, primary screen (AID 624);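 note: slope of fluorescence ratio to pre-addition baseline per second over 15 to 24 s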
# CONDITION DETAILS: thallium flux BTC fluorescence, at 10 µM, actives lie on both sides
Criterion: slope strictly less than 0.006. Met: Condition met. Not met: Condition not met.

(Q) Just wondering, is slope of Cn1c(=O)c2c(-c3ccccc3)n(CCCN3CCOCC3)cc2n(C)c1=O below 0.006?
(A) Condition not met

(Q) Dear reviewer, please state whether Cc1ccc(C)c(S(=O)(=O)NCc2cccnc2)c1 has slope strictly beneath 0.006.
(A) Condition not met

----------
Listed next: entries and their corresponding slope.
# TARGET OR SYSTEM: Alpha-2C adrenergic receptor (Homo sapiens) (UniProt P18825)
# ASSAY NOTES: compounds altering alpha2C-coupled GIRK flux – cell-based, HEK293 alpha2C/GIRK1/2, thallium flux, primary screen (AID 624);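 note: slope of fluorescence ratio to pre-addition baseline per second over 15 to 24 s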
# CONDITION DETAILS: thallium flux BTC fluorescence, at 10 µM, actives lie on both sides
// no unit, no text: just the number

Example entries and their recorded answers appear below.
Cc1cc(NC(=O)CCC(=O)N(CC(=O)NC2CCCC2)Cc2ccc(F)cc2)no1 ... 0.00498
CN(C)C(=O)Cn1c(SCC(=O)NC2CCCCC2)nc2ccccc21 ... 0.00698
CC1CC(=O)c2cnc(NCC3CCCO3)nc2C1 (stereo not given) ... 0.00446

(Q) Give the value of slope reported for the following: O=S(=O)(c1cccc2nsnc12)N1CCN(c2ncccn2)CC1
(A) 0.00508

(Q) Tell me slope reported for Cc1cc(C)n(-c2nc3sc4c(c3c3nnc(SC(C)C)n23)CC(C)(C)OC4)n1
(A) 0.00472

(Q) Provide slope value for the following compound: COc1cc2c(cc1NC(=O)CN1CCN(S(=O)(=O)c3ccc(F)cc3)CC1)oc1ccccc12
(A) 0.0037

(Q) Using known records, supply slope for CCOc1ccc(N2CC(C(=O)NCCc3ccc(OC)c(OC)c3)CC2=O)cc1 (stereo not given)
(A) 0.00548

(Q) Supply measured slope of COc1ccc2cc(C(=O)NCc3ccco3)c(=Nc3ccc(C(=O)O)cc3)oc2c1 in your reply.
(A) 0.00401

(Q) Specify reported slope for the compound shown: CCCCCn1c(CN2CCN(c3cccc(Cl)c3)CC2)nc2c1c(=O)n(C)c(=O)n2C
(A) 0.00648

(Q) Consider the compound Cn1c(=O)n(CCN2CCOCC2)c(=O)c2c1nc1n2CCN1c1ccccc1 and give its recorded slope.
(A) 0.00592

Origin of the recorded values: PubChem BioAssay
